Where do these numbers come from? They come from patent US20090311237A1.

Experiment: Pharmacokinetics of ZA in pig serum after IV or SC infusion with or without rHuPH20 (LC-MS-MS, non-compartmental analysis)
Format: in vivo
Details: female, Yorkshire, pig, serum, subcutaneous, […], Time 2 h; pig ID 59; Study Group 2; SC; ZA […]; 100 mL, 16 min; rHuPH20 0 U/mL; read-out: Zoledronic Acid Serum Concentration
Outcome measure: concentration at 2 h (ng/mL)
Lab book: enter the figure in ng/mL, no units written.

Problem: Name the recorded concentration at 2 h for `O=P(O)(O)C(O)(Cn1ccnc1)P(=O)(O)O` .
Solution: 22.9

###

Assay: Phase 1 Stage 1 clinical pharmacokinetics of SC ZA co-administered with rHuPH20
Assay type: in vivo, human
Conditions: human, serum, sc, serum; ZA 0.5 mg SC infusion + 24000 Units rHuPH20; 12 h post infusion; individual subjects; read-out: Zoledronic Acid Concentration
Outcome measure: concentration at 12 h (ng/mL)
Lab book: enter the figure in ng/mL, no units written.

Problem: Name the recorded concentration at 12 h for `O=P(O)(O)C(O)(Cn1ccnc1)P(=O)(O)O` .
Solution: 0.52
